- assayMethodText: NCI Yeast Anticancer Drug Screen. Data for the bub3 strain (AID 167)
- assayContext: S. cerevisiae bub3 mutant strain, at 50.0 µM (retest, dose inferred, filed as 5.0)
- Description: Growth inhibition of yeast strains with defined genetic alterations is measured as a screen for potential anti-cancer activity. Selected strains with alterations in DNA damage repair or cell cycle control were exposed to compounds and growth inhibition was measured relative to vehicle treated controls. The strain used in this assay is bub3
Compounds without any hit were thinned out: in the full panel of roughly 79,000, 15% have a hit. Active and inactive are the calls of the source. Cut-off read from the data, not from the text of the source: active = growth inhibition above about 70%; inactive = the rest.
Respond using exactly one of the listed classes: TRUE = active, FALSE = inactive

Solved entries:
compound | class
O=C(O)CCCC1CCCCC1 | FALSE
[Cl][Sn]([Cl])([c]1ccccc1)[c]1ccccc1.c1ccncc1.c1ccncc1 | TRUE
O=C(CBr)Nc1ccccc1Cl | TRUE

*Q* Tell me the assay call for Nc1nc(N)c(-c2ccc(Cl)c(Cl)c2)c(CP(Cl)(Cl)(Cl)Br)n1 please.
*A* TRUE

*Q* Tell me the assay call for CC/C(=C(/CC)c1ccc(OP(N)(=O)N(CCCl)CCCl)cc1)c1ccc(OP(N)(=O)N(CCCl)CCCl)cc1 (stereo not given) please.
*A* FALSE

*Q* Tell me the assay call for O=c1c2ccccc2[se]n1-c1cccnc1 please.
*A* FALSE
